test: Primary qHTS for delayed death inhibitors of the malarial parasite plastid, 48 hour incubation; settings: P. falciparum luciferase growth in erythrocytes; series mostly up to 28.7 µM
About 18,000 (5.8%) of roughly 310,000 compounds were called active. About 22% were inconclusive and are not listed. Calls follow the shape of the dose curve; as a rule, active = well fitted inhibition curve with a large enough effect; inconclusive = small, poorly fitted or top-dose-only effect, or another doubt; inactive = no such curve, though single readings can be large or run the other way. The full list was thinned out, with actives kept by preference.
Answer with one of the outcomes given here: active, inactive

Observe how each entry below is paired with its result.
molecule	label
Cc1ccc(Cn2c(=N)c(S(=O)(=O)c3ccc(C)cc3)cc3c(=O)n4ccccc4nc32)cc1	inactive
COc1ccc(C(=O)N2CCCCC2C(=O)Nc2ccc(-n3nc(C)cc3C)cc2)o1 (stereo unspecified)	inactive

Task: // return assay outcome for O=C(Cc1ccc(-c2ccccc2)cc1)NC(c1ccccc1)c1ccccc1
Output: active

Task: Follow-up entry: COc1ccc(CCNC(=O)c2ccc3c(c2)NC(=O)C(N2CCOCC2)S3)cc1OC (stereo unspecified)
Output: inactive

Task: What about this molecule? CCN1CCN(CCNC(=O)c2ccc3c(c2)NC(=O)/C(=C\c2ccc(OC)c(OC)c2)S3)CC1
Output: active

Task: Next: Cc1ccc(C(=O)N/C(=C\c2ccc(F)cc2)C(=O)NCCN2CCOCC2)cc1
Output: inactive

Task: For CN1C(=O)/C(=C/c2ccc(C(=O)NC3CCCC3)cc2)Oc2ccccc21 then?
Output: inactive

Task: What about this molecule? COCCOC1CCN(C(=O)c2ccc(OC)c(OC3CCN(C(C)C)CC3)c2)CC1
Output: inactive

Task: Now try CSC(=S)N/N=C/c1c[nH]c2ccccc12 .
Output: inactive

Task: Entry Cc1ccc(C)c(OCCC(=O)OCC(=O)N2CCN(c3ccccc3)CC2)c1 please
Output: inactive

Task: // same read-out, input: CC1CN(C(=S)Nc2ccc(Br)cc2Cl)CC(C)O1 (stereo unspecified)
Output: inactive

Task: What do you have for CCCN1CCN(C(=O)CCCNC(=O)c2ccc(Cl)cc2)CC1 ?
Output: inactive

Task: Request: CC(C)C(=O)N1CC(=O)Nc2ccc(F)cc2C1c1ccc(F)cc1 (stereo unspecified)
Output: inactive

Task: Likewise for O=C(NCCN1C(=O)S/C(=C\c2cccnc2)C1=O)c1cccc(OC(F)F)c1 ?
Output: inactive

Task: // repeat for Cc1ccc(NC(=O)C2CCN(S(=O)(=O)c3ccc4c(c3)NC(=O)CO4)CC2)cc1C and report
Output: inactive

Task: Another: COc1ccc(/C=C(\NC(=O)c2ccccc2)C(=O)NCCN2CCOCC2)cc1OC
Output: inactive

Task: For CC(=O)Nc1ccc(S(=O)(=O)NC2Cc3ccccc3C2)cc1 then?
Output: inactive

Task: Now try O=C(NCCN1CCOCC1)/C(=C/c1ccc(F)cc1)NC(=O)c1ccccc1 .
Output: inactive

Task: Item: C=CCC(NC(=O)Cc1ccccc1)C(=O)NCCC (stereo unspecified)
Output: inactive

Task: Repeat with CCOc1cc(C2/C(=C(/O)c3ccc(S(=O)(=O)N4CCCCC4)cc3)C(=O)C(=O)N2CCOC)ccc1O (stereo unspecified)
Output: inactive

Task: Input COc1cc(OC)cc(C(=O)NCC(=O)N2CCCCCCC2)c1
Output: inactive

----------
assay: Primary qHTS for delayed death inhibitors of the malarial parasite plastid, 48 hour incubation; details: P. falciparum luciferase growth in erythrocytes; series mostly up to 28.7 µM
Among all 310,000 compounds or so, about 18,000 (5.8%) were called active. Another 22% or so got no clear call; they are omitted. Calls follow the shape of the dose curve; as a rule, active = well fitted inhibition curve with a large enough effect; inconclusive = small, poorly fitted or top-dose-only effect, or another doubt; inactive = no such curve, though single readings can be large or run the other way. This is one part of a sample in which actives are shown more often than they occur.
Reply using exactly one outcome from Y (active), N (inactive)

molecule	label
CCOc1ccc(N(C)Cc2cc(=O)oc3ccc(OC)cc23)cc1	N
COc1ccccc1Oc1ccc(N2CC(C(=O)OCC(=O)c3ccc(F)cc3)CC2=O)cc1 (stereo not given)	N

Okay, now this molecule:
Task: In this assay, the call recorded for Cc1c(Cc2ccccc2)c(=O)oc2cc(OCC(N)=O)ccc12 was what?
Output: Y

----------
Assay: Primary qHTS for delayed death inhibitors of the malarial parasite plastid, 48 hour incubation
Conditions: P. falciparum luciferase growth in erythrocytes; series mostly up to 28.7 µM
Source text: The goal of this screen is to discover new antimalarial compounds that act by inhibiting the development of the apicoplast in the malarial parasite Plasmodium falciparum. […] We have developed a cell-based assay that measures parasite growth based on the expression of an integrated copy of a firefly luciferase reporter. […] Growth inhibition is detected by a decrease in luciferase activity. […]
Among all 310,000 compounds or so, about 18,000 (5.8%) were called active. Not shown: some 22% with an inconclusive outcome. Calls follow the shape of the dose curve; as a rule, active = well fitted inhibition curve with a large enough effect; inconclusive = small, poorly fitted or top-dose-only effect, or another doubt; inactive = no such curve, though single readings can be large or run the other way. Many of the other results were omitted from the sample, so actives are more common in it than they were.
Give your call using only these classes: active, inactive

Example cases with answers are listed next.
compound	label
C#CCOCCOCCOCCNc1nc(N2CCN(C(=O)[C@H](CCC(=O)O)n3cc(C(N)CO)nn3)CC2)nc(N2CCN(C(=O)[C@H](Cc3ccc(O)cc3)n3cc(C(N)[C@H](C)CC)nn3)CC2)n1 (stereo not given in full)	inactive
C#CCOCCOCCOCCNc1nc(N2CCN(C(=O)[C@H](CCCCN)n3cc(CCC(=O)O)nn3)CC2)nc(N2CCN(C(=O)[C@H](CCCCN)n3cc(CC(C)O)nn3)CC2)n1 (stereo not given in full)	inactive
C#CCOCCOCCOCCNc1nc(N2CCN(C(=O)[C@H](CCC(=O)O)n3cc(C(N)CO)nn3)CC2)nc(N2CCN(C(=O)[C@H](CCCCN)n3cc(C(N)[C@H](C)CC)nn3)CC2)n1 (stereo not given in full)	inactive
C#CCOCCOCCOCCNc1nc(N2CCN(C(=O)[C@H](CCC(=O)O)n3cc(C(N)CO)nn3)CC2)nc(N2CCN(C(=O)[C@H](CCCCN)n3cc(C(N)CC(C)C)nn3)CC2)n1 (stereo not given in full)	inactive

API: the following record is the query input.
Task: Assay result, entry C#CCOCCOCCOCCNc1nc(N2CCN(C(=O)CCCCCCCCCCNC(=O)[C@H](CCCCN)n3cc(C)nn3)CC2)nc(N2CCN(C(=O)CCCCCCCCCCNC(=O)[C@H](CO)n3cc(CCCSC)nn3)CC2)n1 — outcome?
Output: active

----------
assay: Primary qHTS for delayed death inhibitors of the malarial parasite plastid, 48 hour incubation; conditions: P. falciparum luciferase growth in erythrocytes; series mostly up to 28.7 µM
The whole screen tested about 310,000 compounds, of which about 18,000 (5.8%) were called active. Roughly 22% stayed inconclusive and do not appear here. The call rests on the fitted dose curve; in most records, active means well fitted inhibition curve with a large enough effect; inconclusive means small, poorly fitted or top-dose-only effect, or another doubt; inactive means no such curve, though single readings can be large or run the other way. The sample holds actives, similar compounds and a random draw of the others, so the mix is not that of the screen.
Your answer must be one of the following: label 1 for active, label 0 for inactive

Task: Name the outcome recorded for COc1ccc(CCNC(=O)c2nnc(CS(=O)(=O)c3ccccc3)o2)cc1OC in the assay.
Output: label 1

Task: Thanks! And Cc1ccc(O)c(NC(=O)COc2cc(C)ccc2C)c1 ?
Output: label 1

Task: Follow-up item: C=CCc1ccccc1OCC(O)CN1CCN(CCO)CC1 (stereo unspecified)
Output: label 0

----------
Assay: Primary qHTS for delayed death inhibitors of the malarial parasite plastid, 48 hour incubation
Details: P. falciparum luciferase growth in erythrocytes; series mostly up to 28.7 µM
Text: The goal of this screen is to discover new antimalarial compounds that act by inhibiting the development of the apicoplast in the malarial parasite Plasmodium falciparum. […] We have developed a cell-based assay that measures parasite growth based on the expression of an integrated copy of a firefly luciferase reporter. […] Growth inhibition is detected by a decrease in luciferase activity. […]
About 18,000 (5.8%) of roughly 310,000 compounds were called active. Another 22% or so got no clear call; they are omitted. The call rests on the fitted dose curve; in most records, active means well fitted inhibition curve with a large enough effect; inconclusive means small, poorly fitted or top-dose-only effect, or another doubt; inactive means no such curve, though single readings can be large or run the other way. The sample as a whole holds a higher share of actives than the screen did.
Outcome field: choose from T = active, F = inactive

Take a look at these entries with their results.
compound	label
O=C(CN1CCCCC1)NC(=O)Nc1ccccc1F	F
Cn1c(CNC(=O)c2ccco2)nnc1SCC(=O)N1CCN(c2ccccc2)CC1	F
COc1ccc(C(C(=O)NC2CCCCC2)N(C(=O)Cc2c[nH]c3ccccc23)c2ccccc2)cc1OC (stereo unspecified)	T
COc1ccc(Nc2ncnc3sc(-c4ccccc4)cc23)c(OC)c1	F

Task: Outcome? CCN(CC)CCN(C(=O)c1ccc(S(=O)(=O)N2CCOCC2)cc1)c1nc2cc3c(cc2s1)OCCO3
Output: F

Task: Repeat for the following compound: CCOC(=O)C1CCN(C(=O)C2CCCN(S(=O)(=O)c3ccc(OC)c(Cl)c3)C2)CC1 (stereo unspecified)
Output: F

Task: Try O=C(CN1CCOC1=O)N1CCCC(Nc2ccc(F)c(F)c2)C1 (stereo unspecified) next.
Output: F

Task: Further, for Cc1cccc(C)c1NC(=O)COC(=O)c1ccccc1O ?
Output: F

Task: Then what about the compound CCOC(=O)C1CCN(C(=O)c2oc3ccc(S(=O)(=O)N4CCCCCC4)cc3c2C)CC1 ?
Output: T

Task: Same again, this time with COc1ccc(C(=O)OCC(=O)Nc2ccc3[nH]c(=O)[nH]c3c2)c(OC)c1OC
Output: F

Task: Thanks! And Cc1cc(=O)oc2c3c(cc(OCC(=O)NCCC(=O)N[C@@H](C)C(=O)O)c12)OC(C)(C)CC3 ?
Output: F

Task: // query: COc1ccc(OC)c(C(=O)NC(CC(N)=O)c2ccc(N3CCC(N4CCCCC4)CC3)c([N+](=O)[O-])c2)c1 (stereo unspecified)
Output: F

Task: Also need CCOc1ccc2nc(N(CCN(C)C)C(=O)c3ccc4ccccc4c3)sc2c1 , thanks.
Output: F

Task: // query: Cc1c(C(=O)NCCN(C)C)oc2ccc(S(=O)(=O)N3CCCC3)cc12
Output: F

Task: Try O=C(/C=C/c1cccc([N+](=O)[O-])c1)N1CCN(Cc2ccccc2)CC1 next.
Output: F

Task: Try this compound next: Cc1ccc(S(=O)(=O)N2CCN(c3ccccc3)CC2)cc1C
Output: F

Task: # repeat for CC(C(=O)c1ccc(-c2ccccc2)cc1)[n+]1cccc(Br)c1 (stereo unspecified)
Output: F

Task: Thanks! And COc1ccc(Cc2nc3ccc(C(=O)NCC4CCOCC4)cc3o2)cc1OC ?
Output: F
